# procedure-text: yeast display, Sf9 membrane polyspecificity reagent, FACS + sequencing; frameworks hold sequencing errors

input-sequence | polyreactivity (PSR sort gate)
QVQLRESGAGGRQPAPELRCERQYFYWSADGLVSQPPGKEREFVAGIDRGTITNYADSVRGRFTISRDNAKNTVYLQMNSLKPEDTAVYYCNAEYRRRPKLGDEDEYWGHGTQVTVSS | high polyreactivity
QVQLVESGGCLVQAGGSLRLSCAASGSTFPIYAMGWYRQAPGKERELVARITWNGGRTYYADSVKGRFTISRDNAKNTVYLQMNSLKPEDTAVYYCNALYYHNLEGNYWGQGTQVTVSS | high polyreactivity
QVQLVESGGGLVQAGGSLRLSCAASGSTFGVYTMGWYIQAPGKERELVAAITKSGGSTYYADSVKGRFTISRDNAKNTVYLQMNSLKPEDTAVYYCNTDYGRYLYYRYGYWGQGTQVTVSS | low polyreactivity
QVQLVESGGGLVQAGGSLRLSCAASGSTLGFNAMGWYRQAPGKEREFVAGISASGSSTYYADSVKGRFTISRDNAKNTVYLQMNSLKPEDTAVYYCAARASGGPYWSRGKYWGQGTQVTVSS | high polyreactivity
QVQLVESGGGLVQAGGSLRLSCAASGFTYIYYAMGWYRQAPGKERELVAAITSGGRTYYADSVKGRFTISRDNAKNTVYLQMNSLKPEDTAVYYCAKRFTLPLSEYDYWGQGTQVIVSS | high polyreactivity
QVQLVESGGGLVQAGGSLRLSCAASGSTLSVYVMGWYSQAPGKERELVAAITRGGSTNYADSVKGRFTISRDNAKNTVYLQMISLKPEDTAVYYCAARAFVYYHHGEGSRSGRYYYWGQGTQVTVSS | high polyreactivity
QLQLVESGGGLVQAGGSLRLSCAASGRIFQSYALGWYRQAPGKESELVAGIRAGGGRTYYADSVKGRFTISRDNAKNTVYLQMNSLKPEDTAVYYCATDFYPRYLLRTYRPYYYWGQGTQVTVSS | low polyreactivity
QVQLVESGGGLVQAGGSLRLSCDASGSTFSPYAMRWYRQAPGKERELVAAINYSSGSTYYADSVKGRFTISRDNAKNTVYLQMNSLKPEDTAVYYCAYGWYAGYPYDYWGQGTQVTVSS | low polyreactivity
QVQLVESGGGLVQAGGSLRLSCAASGSIFEEYAMGWYRQAPGKERELVARIDESGGSTYYADSVKGRFTISRDNAKNTVYLQMNSLKPEDTAVYYCAAERYSDSWGYYSVDEGSWEMDYWGQGTQVTVSS | low polyreactivity
QVQLVESGGGVVQAGGSLRLSCAASGSIFQSYAMGWYRQAPGKERELVAAISYSGDGPFYADSVKGRFTISRDNAKKTVYLQMNSLKPEDTAVYYCAASSTGYGGSTYYYWGQGTQVTVSS | low polyreactivity
QVQLVESGGGLVQAGGSIRLTSAASGRTFVTHPMGWYRQAPGKDRELVAAISRSGSSTYYADSVKGRFTISRDNAKNSVYLQMNSLKAADTAVYYFARVRSRATEVVEYDYWGQGTQVTVSS | high polyreactivity
